So I've got log10(GI50) readings for HCT-15, take a look.
Short version: log10 scale, GI50, µM.

// known answers, use as guide
So what log10(GI50) did "CCCCN(CCCC)/C(=N\C#N)NCc1ccccc1" get with HCT-15?
1.18

So what log10(GI50) did "CCOC(=O)/C(=C\c1ccc(C#N)cc1)C(C)=O" get with HCT-15?
1.26

So what log10(GI50) did COc1cccc2c1C(=O)c1c(O)c3c(c(O)c1C2=O)C[C@@](O)(C(C)O)C[C@@H]3OC1CC(N)C(O)C(C)O1 (stereo not given in full) get with HCT-15?
0.92

So what log10(GI50) did "COc1ccc(C(=O)c2sc(Nc3ccccc3)nc2N)cc1" get with HCT-15?
0.58

So what log10(GI50) did CC(=O)N1c2ccccc2C(C)C1c1[nH]c2ccccc2c1C (stereo not given) get with HCT-15?
1.43

So what log10(GI50) did "COc1c(C)cc2c(C(C)C)c(O)c(O)c(C=O)c2c1O" get with HCT-15?
1.39

So what log10(GI50) did CC(=O)OCC(C)C1=C(OC(C)=O)C(=O)C2(C)C/C=C(/C)CC/C=C(\C)CCC(OC(C)=O)C(C)CCC12 (stereo not given) get with HCT-15?
1.23

So what log10(GI50) did "Cc1ccc(-c2c(C#N)c(-c3ccc(C)cc3)n(NS(=O)(=O)c3ccccc3)c(=O)c2C#N)cc1" get with HCT-15?
1.60

Others:
So what log10(GI50) did "Cc1c2ncccc2cc2oc3ccccc3c(=O)c12" get with HCT-15?
1.62

So what log10(GI50) did "COC1=CC(=Nc2c(Cl)cc(Cl)cc2OC(=O)c2ccc([N+](=O)[O-])cc2)C=C(OC)C1=O" get with HCT-15?
0.78

So what log10(GI50) did N#CC1=C(N)N2C(=O)/C(=C/c3ccccc3)SC2C(c2nc3ccccc3[nH]2)=C1c1ccccc1 (stereo not given) get with HCT-15?
0.47

So what log10(GI50) did "O=[N+]([O-])c1cc(-c2nc(-c3ccccc3)c(-c3ccccc3)[nH]2)c(O)c([N+](=O)[O-])c1" get with HCT-15?
1.20

So what log10(GI50) did "C#CCSc1cnc2ccccc2c1Sc1c[nH]c2ccccc2c1=O" get with HCT-15?
1.21

----------
test system: SW-620; assay: NCI tumour cell line growth inhibition, 48 h
Activity calls are given as the source filed them. Cut-off read from the data, not from the text of the source: active = GI50 up to about 1.1 µM and inactive = higher.
reportedEndpoint: GI50

Consider the compound "CCOC(=O)c1c[nH]cc1-c1cn(S(=O)(=O)c2ccccc2)cc1C" and give its measured GI50.
> 10 µM (inactive)

Consider the compound "O=c1cc(N2CCOCC2)oc2c(-c3ccccc3)cccc12" and give its measured GI50.
21.7 µM (inactive)

Others:
Consider the compound CC(=O)C(O)N1C(=O)C=CC1=O (centres undefined) and give its measured GI50.
1.71 µM (inactive)

Consider the compound "CC(/C=N/N=C1NCCCN1)=N\N=C1NCCCN1" and give its measured GI50.
> 100 µM (inactive)

Consider the compound "CC(C)=C1C(=O)C[C@]2(C)C/C=C(\C)CC/C=C(\C)CC[C@@H]12" and give its measured GI50.
9.31 µM (inactive)

----------
system: SNB-75; assay: NCI tumour cell line growth inhibition, 48 h
Active and inactive are the calls of the source. Rule as the data show it: active = GI50 up to about 1.1 µM and inactive = higher.
reportedEndpoint: GI50

Consider the compound CN1CCCCC1CCN1c2ccccc2Sc2ccc([S+](C)[O-])cc21 (configuration not stated) and give its measured GI50.
> 100 µM (inactive)

Consider the compound "O=C(NC12CC3CC(CC(C3)C1)C2)C(=O)c1c[nH]c2ccc([N+](=O)[O-])cc12" and give its measured GI50.
14.2 µM (inactive)
